Hey, just so you know, these numbers are from PubChem BioAssay AID2060908.

# Test system: 186277-243-T-J2-PDC complex spheroids, viability;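 note: spheroids exposed to compounds for 7 days before viability read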
# EXPERIMENT_SUMMARY: Anticancer human tumor 186277-243-T-J2-PDC patient-derived colon adenocarcinoma cell line growth inhibition [RAS]
# EXPERIMENTAL_PARAMETERS: second compound 0.00949 µM; first compound 1 µM; active compounds read low
EXPERIMENTAL_READOUT: viability, T/C (%)
Numeric only. Scale: %

Here are 3 compounds together with their reported answers.
COMPOUND: Nc1ccn(C2OC(CO)C(O)C2(F)F)c(=O)n1 (centres undefined) + CCn1c(-c2cccnc2C(C)OC)c2c3cc(ccc31)N1CCOC(CC(NC(=O)C(C(C)C)N(C)C(=O)C3(F)CCN(C(=O)C#CC(C)(C)N(C)C)CC3)C(=O)N3CCCC(N3)C(=O)OCC(C)(C)C2)C1
EXPERIMENTAL_SYSTEM: 186277-243-T-J2-PDC complex spheroids, viability;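 note: spheroids exposed to compounds for 7 days before viability read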
NUMERIC_READOUT: 8.55

COMPOUND: Cc1nc(N2CCC3(CC2)COC(C)C3N)c(CO)nc1Sc1ccnc(N)c1Cl (centres undefined) + CCn1c(-c2cc(N3CCN(C)CC3)cnc2C(C)OC)c2c3cc(ccc31)-c1csc(n1)CC(NC(=O)C1CC1C)C(=O)N1CCCC(N1)C(=O)OCC(C)(C)C2
EXPERIMENTAL_SYSTEM: 186277-243-T-J2-PDC complex spheroids, viability;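 note: spheroids exposed to compounds for 7 days before viability read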
NUMERIC_READOUT: 4.02

COMPOUND: CCC(CC)c1cc(NC2CCC(N)C2)n2nccc2n1 (centres undefined) + CCn1c(-c2cccnc2C(C)OC)c2c3cc(ccc31)N1CCOC(CC(NC(=O)C(C(C)C)N(C)C(=O)C3(F)CCN(C(=O)C#CC(C)(C)N(C)C)CC3)C(=O)N3CCCC(N3)C(=O)OCC(C)(C)C2)C1
EXPERIMENTAL_SYSTEM: 186277-243-T-J2-PDC complex spheroids, viability;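 note: spheroids exposed to compounds for 7 days before viability read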
NUMERIC_READOUT: 103

We now examine a further compound.
Inquiry: Missing value: viability, T/C, 186277-243-T-J2-PDC complex spheroids, viability, entry NC1c2ccccc2OC12CCN(c1cnc3c(N4CCCc5ncccc54)n[nH]c3n1)CC2 (centres undefined) + CCn1c(-c2cc(N3CCN(C)CC3)cnc2C(C)OC)c2c3cc(ccc31)-c1csc(n1)CC(NC(=O)C1CC1C)C(=O)N1CCCC(N1)C(=O)OCC(C)(C)C2 . Fill in?
Reply text: 1.94
